- Assay: in vivo
- Conditions used: female, balb/c, mouse, ip, 20 mg/kg
Endpoint: AUC(0-t) (µg·h/mL)
Give the quantity in µg·h/mL, number only.

Challenge: Request the reported AUC(0-t) associated with "CC[C@H](C)[C@@H]1NC(=O)[C@@](C)(NC(=O)[C@H](CCCNC(=N)N)NC(=O)[C@H](CC(C)C)NC(=O)[C@@H](NC(=O)[C@H](CCC(N)=O)NC(=O)[C@H](CC(C)C)NC(C)=O)[C@@H](C)O)CCCC=CCCC[C@@](C)(C(=O)N[C@@H](CC(C)C)C(=O)N[C@@H](Cc2ccc3ccccc3c2)C(N)=O)NC(=O)[C@H](CCCNC(=N)N)NC(=O)[C@H](CCC(N)=O)NC1=O"
Response given: 160

* * *

- Assay: in vivo
- Conditions used: female, balb/c, mouse, ip, 15 mg/kg
Endpoint: Cmax (ng/mL)
Give just the number in ng/mL; leave the unit off.

Challenge: Any idea what Cmax was measured for CC[C@H](C)[C@@H]1NC(=O)[C@@](C)(NC(=O)[C@H](CCCNC(=N)N)NC(=O)[C@H](CC(C)C)NC(=O)[C@@H](NC(=O)[C@H](CCC(N)=O)NC(=O)[C@H](CC(C)C)NC(C)=O)[C@@H](C)O)CCCC=CCCC[C@@](C)(C(=O)N[C@@H](CC(C)C)C(=O)N[C@@H](Cc2ccc3ccccc3c2)C(N)=O)NC(=O)[C@H](CCCNC(=N)N)NC(=O)[C@H](CCC(N)=O)NC1=O [WX-024, LQTLRXaa1IQRXaa2L] ?
Response given: 8750

* * *

- Assay: in vivo
- Conditions used: female, balb/c, mouse, ip, 10 mg/kg
Endpoint: Tmax (h)
Reply numerically in h, unit not repeated.

Challenge: # lookup: Tmax of "CC[C@H](C)[C@@H]1NC(=O)[C@@](C)(NC(=O)[C@H](CCCNC(=N)N)NC(=O)[C@H](CC(C)C)NC(=O)[C@@H](NC(=O)[C@H](CCC(N)=O)NC(=O)[C@H](CC(C)C)NC(C)=O)[C@@H](C)O)CCCC=CCCC[C@@](C)(C(=O)N[C@@H](CC(C)C)C(=O)N[C@@H](Cc2ccc3ccccc3c2)C(N)=O)NC(=O)[C@H](CCCNC(=N)N)NC(=O)[C@H](CCC(N)=O)NC1=O"
Response given: 2

* * *

- Assay: in vivo
- Conditions used: female, balb/c, mouse, ip, 15 mg/kg
Endpoint: AUC(0-t) (µg·h/mL)
Quick reminder: number only, in µg·h/mL, skip the unit.

Challenge: # lookup: AUC(0-t) of "CC[C@H](C)[C@@H]1NC(=O)[C@@](C)(NC(=O)[C@H](CCCNC(=N)N)NC(=O)[C@H](CC(C)C)NC(=O)[C@@H](NC(=O)[C@H](CCC(N)=O)NC(=O)[C@H](CC(C)C)NC(C)=O)[C@@H](C)O)CCCC=CCCC[C@@](C)(C(=O)N[C@@H](CC(C)C)C(=O)N[C@@H](Cc2ccc3ccccc3c2)C(N)=O)NC(=O)[C@H](CCCNC(=N)N)NC(=O)[C@H](CCC(N)=O)NC1=O"
Response given: 107

* * *

- Assay: Toxicokinetics, 14 days i.p., female balb/c mice
- Conditions used: female, balb/c, mouse, plasma, ip, 15 mg/kg
Endpoint: half-life (h)
Just the number please, in h, no unit attached.

Challenge: Reported half-life for "CC[C@H](C)[C@@H]1NC(=O)[C@@](C)(NC(=O)[C@H](CCCNC(=N)N)NC(=O)[C@H](CC(C)C)NC(=O)[C@@H](NC(=O)[C@H](CCC(N)=O)NC(=O)[C@H](CC(C)C)NC(C)=O)[C@@H](C)O)CCCC=CCCC[C@@](C)(C(=O)N[C@@H](CC(C)C)C(=O)N[C@@H](Cc2ccc3ccccc3c2)C(N)=O)NC(=O)[C@H](CCCNC(=N)N)NC(=O)[C@H](CCC(N)=O)NC1=O" : what is it?
Response given: 4.25

* * *

- Assay: Toxicokinetics, 14 days i.p., female balb/c mice
- Conditions used: female, balb/c, mouse, plasma, ip, 10 mg/kg
Endpoint: half-life (h)
Please reply with the bare figure in h and do not write the unit itself.

Challenge: # half-life lookup, item "CC[C@H](C)[C@@H]1NC(=O)[C@@](C)(NC(=O)[C@H](CCCNC(=N)N)NC(=O)[C@H](CC(C)C)NC(=O)[C@@H](NC(=O)[C@H](CCC(N)=O)NC(=O)[C@H](CC(C)C)NC(C)=O)[C@@H](C)O)CCCC=CCCC[C@@](C)(C(=O)N[C@@H](CC(C)C)C(=O)N[C@@H](Cc2ccc3ccccc3c2)C(N)=O)NC(=O)[C@H](CCCNC(=N)N)NC(=O)[C@H](CCC(N)=O)NC1=O"
Response given: 6.97

* * *

- Assay: in vivo
- Conditions used: female, balb/c, mouse, ip, 20 mg/kg
Endpoint: Tmax (h)
Give just the number in h; leave the unit off.

Challenge: Suppose we examine the molecule "CC[C@H](C)[C@@H]1NC(=O)[C@@](C)(NC(=O)[C@H](CCCNC(=N)N)NC(=O)[C@H](CC(C)C)NC(=O)[C@@H](NC(=O)[C@H](CCC(N)=O)NC(=O)[C@H](CC(C)C)NC(C)=O)[C@@H](C)O)CCCC=CCCC[C@@](C)(C(=O)N[C@@H](CC(C)C)C(=O)N[C@@H](Cc2ccc3ccccc3c2)C(N)=O)NC(=O)[C@H](CCCNC(=N)N)NC(=O)[C@H](CCC(N)=O)NC1=O" ; what Tmax value has been reported?
Response given: 4

* * *

- Assay: in vivo
- Conditions used: female, balb/c, mouse, ip, 10 mg/kg
Endpoint: AUC(0-t) (ng·h/mL)
A number alone suffices; assume ng·h/mL.

Challenge: Give its AUC(0-t) value. Item: CC[C@H](C)[C@@H]1NC(=O)[C@@](C)(NC(=O)[C@H](CCCNC(=N)N)NC(=O)[C@H](CC(C)C)NC(=O)[C@@H](NC(=O)[C@H](CCC(N)=O)NC(=O)[C@H](CC(C)C)NC(C)=O)[C@@H](C)O)CCCC=CCCC[C@@](C)(C(=O)N[C@@H](CC(C)C)C(=O)N[C@@H](Cc2ccc3ccccc3c2)C(N)=O)NC(=O)[C@H](CCCNC(=N)N)NC(=O)[C@H](CCC(N)=O)NC1=O [WX-024, LQTLRXaa1IQRXaa2L]
Response given: 37800

* * *

- Assay: in vivo
- Conditions used: male, ICR, mouse
Endpoint: half-life

Challenge: half-life lookup needed for CC[C@H](C)[C@@H]1NC(=O)[C@@](C)(NC(=O)[C@H](CCCNC(=N)N)NC(=O)[C@H](CC(C)C)NC(=O)[C@@H](NC(=O)[C@H](CCC(N)=O)NC(=O)[C@H](CC(C)C)NC(C)=O)[C@@H](C)O)CCCC=CCCC[C@@](C)(C(=O)N[C@@H](CC(C)C)C(=O)N[C@@H](Cc2ccc3ccccc3c2)C(N)=O)NC(=O)[C@H](CCCNC(=N)N)NC(=O)[C@H](CCC(N)=O)NC1=O [WX-024, LQTLRXaa1IQRXaa2L] , thanks.
Response given: 2.4 to 2.5 h

* * *

- Assay: in vivo
- Conditions used: female, balb/c, mouse, ip, 15 mg/kg
Endpoint: Tmax (h)
Express the result in h but write the number alone.

Challenge: Given the molecule "CC[C@H](C)[C@@H]1NC(=O)[C@@](C)(NC(=O)[C@H](CCCNC(=N)N)NC(=O)[C@H](CC(C)C)NC(=O)[C@@H](NC(=O)[C@H](CCC(N)=O)NC(=O)[C@H](CC(C)C)NC(C)=O)[C@@H](C)O)CCCC=CCCC[C@@](C)(C(=O)N[C@@H](CC(C)C)C(=O)N[C@@H](Cc2ccc3ccccc3c2)C(N)=O)NC(=O)[C@H](CCCNC(=N)N)NC(=O)[C@H](CCC(N)=O)NC1=O" , what is its reported Tmax?
Response given: 3.33

* * *

- Assay: Pharmacokinetics in male ICR mice
- Conditions used: mouse, plasma, ip, 5 mg/kg
Endpoint: bioavailability (%)
Value expressed in %; do not type the unit.

Challenge: Would you mind telling me what bioavailability value was observed for "CC[C@H](C)[C@@H]1NC(=O)[C@@](C)(NC(=O)[C@H](CCCNC(=N)N)NC(=O)[C@H](CC(C)C)NC(=O)[C@@H](NC(=O)[C@H](CCC(N)=O)NC(=O)[C@H](CC(C)C)NC(C)=O)[C@@H](C)O)CCCC=CCCC[C@@](C)(C(=O)N[C@@H](CC(C)C)C(=O)N[C@@H](Cc2ccc3ccccc3c2)C(N)=O)NC(=O)[C@H](CCCNC(=N)N)NC(=O)[C@H](CCC(N)=O)NC1=O" ?
Response given: 73.6

* * *

- Assay: in vivo
- Conditions used: female, balb/c, mouse, ip, 10 mg/kg
Endpoint: AUC(0-inf) (ng·h/mL)
Write the number in ng·h/mL without appending the unit.

Challenge: Fill in the blank: the reported AUC(0-inf) of CC[C@H](C)[C@@H]1NC(=O)[C@@](C)(NC(=O)[C@H](CCCNC(=N)N)NC(=O)[C@H](CC(C)C)NC(=O)[C@@H](NC(=O)[C@H](CCC(N)=O)NC(=O)[C@H](CC(C)C)NC(C)=O)[C@@H](C)O)CCCC=CCCC[C@@](C)(C(=O)N[C@@H](CC(C)C)C(=O)N[C@@H](Cc2ccc3ccccc3c2)C(N)=O)NC(=O)[C@H](CCCNC(=N)N)NC(=O)[C@H](CCC(N)=O)NC1=O [WX-024, LQTLRXaa1IQRXaa2L] is ____.
Response given: 41100
